# assay system: KRAS G13C (Homo sapiens, UniProt P01116+P62937, G13C)
# Sequence (P01116 1-169 isoform P01116-2 G13C): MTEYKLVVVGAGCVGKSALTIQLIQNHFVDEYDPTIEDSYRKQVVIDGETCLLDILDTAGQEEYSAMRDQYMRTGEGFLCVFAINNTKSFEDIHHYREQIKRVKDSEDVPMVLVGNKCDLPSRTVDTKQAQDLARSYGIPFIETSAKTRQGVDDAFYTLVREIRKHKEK
# Sequence (P62937 whole entry): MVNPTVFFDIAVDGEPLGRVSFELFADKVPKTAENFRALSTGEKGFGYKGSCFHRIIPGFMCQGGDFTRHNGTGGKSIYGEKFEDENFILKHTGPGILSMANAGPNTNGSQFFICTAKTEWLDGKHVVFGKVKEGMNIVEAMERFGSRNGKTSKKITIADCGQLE
# assay overview: Disruption of BRAF RBD interaction with Ras (FRET / MOA assay, with Cyclophilin A)
# Format: biochemical
# recorded conditions: KRAS G13C; read-out: KRAS G13C FRET data IC50
measured attribute: IC50

Example molecules with recorded IC50:
get_value(item= C=CC(=O)N1CCC2(C1)CN(C(=O)N(C)[C@H](C(=O)N[C@H]1Cc3nc(cs3)-c3ccc4c(c3)c(c(-c3cccnc3[C@H](C)OC)n4CC(F)(F)F)CC(C)(C)COC(=O)C3CCCN(N3)C1=O)C(C)C)C2 (stereo partly shown) [Example A603] , readout=IC50) returns 10 to 100 nM

Query C=CC(=O)N1CC[C@H](C(=O)N(C)[C@H](C(=O)N[C@H]2Cc3cc(O)cc(c3)-c3ccc4c(c3)c(c(-c3ccccc3CN(C)C)n4CC)CC(C)(C)COC(=O)[C@@H]3CCCN(N3)C2=O)C(C)C)C1 [Example A005] yields IC50 of 100 to 1000 nM

In plain terms, C=CC(=O)N1CC[C@H](C(=O)N(C)[C@H](C(=O)N[C@H]2Cc3cc(O)cc(c3)-c3ccc4c(c3)c(c(-c3cccnc3N3CC(OC)C3)n4CC)CC(C)(C)COC(=O)[C@@H]3CCCN(N3)C2=O)C(C)C)C1 [Example A060] has a documented IC50 of 1000 to 10000 nM

// next item, IC50 requested
The molecule listed as C=CC(=O)N1CC[C@H](C(=O)N(C)[C@H](C(=O)N[C@H]2Cc3cc(O)cc(c3)-c3ccc4c(c3)c(c(-c3ccc5cc(CN(C)C)n(C)c5c3)n4CC)CC(C)(C)COC(=O)[C@@H]3CCCN(N3)C2=O)C(C)C)C1 [Example A035] shows IC50 equal to 1000 to 10000 nM

---

# assay system: KRAS G12S (Homo sapiens, UniProt P01116+P62937, G12S)
# Sequence (P01116 1-169 isoform P01116-2 G12S limits assumed): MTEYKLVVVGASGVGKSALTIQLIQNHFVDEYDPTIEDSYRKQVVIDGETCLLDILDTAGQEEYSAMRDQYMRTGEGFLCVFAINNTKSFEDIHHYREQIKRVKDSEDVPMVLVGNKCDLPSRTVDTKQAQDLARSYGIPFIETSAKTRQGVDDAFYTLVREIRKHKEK
# Sequence (P62937 whole entry): as the sequence (P62937 whole entry) above
# assay overview: Ras-Raf disruption / FRET / MOA assay (BRAF RBD)
# Format: biochemical
# recorded conditions: Ras-Raf disruption, with Cyclophilin A; read-out: KRAS G12S FRET data IC50
pIC50: −log10 of the molar value.
measured attribute: pIC50

Tested on KRAS G12S (Homo sapiens, UniProt P01116+P62937, G12S): `CCn1c(-c2cccnc2[C@H](C)OC)c2c3cc(ccc31)-c1cc(O)cc(c1)C[C@H](NC(=O)[C@H](C(C)C)N(C)C(=O)N1CCCN(C(=O)[C@@H]3CN3)CC1)C(=O)N1CCC[C@H](N1)C(=O)OCC(C)(C)C2` . Observed pIC50: 7.00 to 8.00

With those in mind, consider the next molecule.
pIC50 on KRAS G12S (Homo sapiens, UniProt P01116+P62937, G12S) for CCn1c(-c2cccnc2[C@H](C)OC)c2c3cc(ccc31)-c1cc(O)cc(c1)C[C@H](NC(=O)[C@H](C(C)C)N(C)C(=O)CN(C)C(=O)[C@H]1C[C@@H]3N[C@@H]3C1)C(=O)N1CCC[C@H](N1)C(=O)OCC(C)(C)C2 (atropisomer, axis not shown) is 7.00 to 8.00

---

# key: entry, value: pIC50
# assay system: KRAS Q61H (Homo sapiens, UniProt P01116+P62937, Q61H)
# Sequence (P01116 1-169 isoform P01116-2 Q61H limits assumed): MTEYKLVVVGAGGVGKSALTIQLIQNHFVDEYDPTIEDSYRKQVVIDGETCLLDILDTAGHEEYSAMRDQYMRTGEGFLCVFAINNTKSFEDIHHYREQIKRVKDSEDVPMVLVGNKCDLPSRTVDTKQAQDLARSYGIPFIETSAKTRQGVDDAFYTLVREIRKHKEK
# Sequence (P62937 whole entry): as the sequence (P62937 whole entry) above
# assay overview: Disruption of BRAF RBD interaction with Ras (FRET / MOA assay, with Cyclophilin A)
# Type: biochemical
# recorded conditions: KRAS Q61H; read-out: KRAS Q61H FRET data IC50
pIC50: −log10 of the molar value.

Please fill in: pIC50 reported for `CCn1c(-c2cccnc2[C@H](C)OC)c2c3cc(ccc31)-c1csc(n1)C[C@H](NC(=O)[C@H](C(C)C)N(C)C(=O)[C@@H]1CCN(C)[C@@H]1c1ccccc1)C(=O)N1CCC[C@H](N1)C(=O)OCC(C)(C)C2` = 6.00 to 7.00

Sample `CCn1c(-c2cccnc2[C@H](C)OC)c2c3cc(ccc31)-c1csc(n1)C[C@H](NC(=O)[C@H](C(C)C)N(C)C(=O)N1CCC(C(=O)C(F)(F)F)CC1)C(=O)N1CCC[C@H](N1)C(=O)OCC(C)(C)C2` ; pIC50 observed: 7.00 to 8.00

pIC50 reading for `CCn1c(-c2cccnc2[C@H](C)OC)c2c3cc(ccc31)-c1nc(cs1)C[C@H](NC(=O)[C@H](C(C)C)N(C)C(C)=O)C(=O)N1CCC[C@H](N1)C(=O)OCC(C)(C)C2` : 6.00 to 7.00

Value of pIC50 reported for the compound `CCn1c(-c2cccnc2[C@H](C)OC)c2c3cc(ccc31)-c1cccc(c1)C[C@H](NC(=O)[C@H](C(C)C)N1CC[C@]3(CCN(C(=O)C#C[C@@H]4COCCN4C4COC4)C3)C1=O)C(=O)N1CCC[C@H](N1)C(=O)OCC(C)(C)C2` is 5.00 to 6.00

---

# assay system: KRAS G13D (Homo sapiens, UniProt P01116+P62937, G13D)
# Sequence (P01116 1-169 isoform P01116-2 G13D limits assumed): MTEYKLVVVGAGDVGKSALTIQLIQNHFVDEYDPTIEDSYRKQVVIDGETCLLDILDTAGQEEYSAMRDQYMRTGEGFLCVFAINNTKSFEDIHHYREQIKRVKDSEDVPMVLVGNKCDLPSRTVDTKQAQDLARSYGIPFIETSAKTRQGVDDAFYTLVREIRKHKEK
# Sequence (P62937 whole entry): as the sequence (P62937 whole entry) above
# assay overview: Disruption of BRAF RBD interaction with Ras (FRET / MOA assay, with Cyclophilin A)
# Type: biochemical
# recorded conditions: KRAS G13D FRET data IC50, KRAS G13D
Measured IC50 values are reported for all entries that follow.

Just so you know, measured IC50 for `CCn1c(-c2cccnc2[C@H](C)OC)c2c3cc(ccc31)-c1csc(n1)C[C@H](NC(=O)[C@H](C(C)C)N(C)C(=O)N1CCC[C@@H](N(C)C)CC1)C(=O)N1CCC[C@H](N1)C(=O)OCC(C)(C)C2` came out at 100 to 1000 nM

Read the next record carefully.
IC50 reading for `CCn1c(-c2cnccc2COC)c2c3cc(ccc31)-c1cc(O)cc(c1)C[C@H](NC(=O)[C@H](C(C)C)N(C)C(=O)[C@H]1CCN(C=O)C1)C(=O)N1CCC[C@H](N1)C(=O)OCC(C)(C)C2` : 100 to 1000 nM

---

IC50 reference
# assay system: KRAS G13D (Homo sapiens, UniProt P01116+P62937, G13D)
# assay overview: Disruption of BRAF RBD interaction with Ras (FRET / MOA assay, with Cyclophilin A)
# Assay type: biochemical
# recorded conditions: KRAS G13D; read-out: KRAS G13D FRET data IC50

Lookup result for `CCn1c(-c2cccnc2[C@H](C)OC)c2c3cc(ccc31)-c1csc(n1)C[C@H](NC(=O)C1(F)COC1)C(=O)N1CCC[C@H](N1)C(=O)OCC(C)(C)C2` ; measured IC50: 1 to 10 µM

// IC50 value for CCn1c(-c2cccnc2[C@H](C)OC)c2c3cc(ccc31)-c1cc(O)cc(c1)C[C@H](NC(=O)[C@H](C(C)C)N(C)C(=O)C1CCc3ccccc3N1)C(=O)N1CCC[C@H](N1)C(=O)OCC(C)(C)C2 (stereo partly drawn) : 0.1 to 1 µM

Please fill in: IC50 reported for `CCn1c(-c2cccnc2[C@H](C)OC)c2c3cc(ccc31)-c1csc(n1)C[C@H](NC(=O)[C@H](C1CCCC1)N(C)C(C)=O)C(=O)N1CCC[C@H](N1)C(=O)OCC(C)(C)C2` = 1 to 10 µM

The recorded IC50 for `CCn1c(-c2cccnc2[C@H](C)OC)c2c3cc(ccc31)-c1cc(O)cc(c1)C[C@H](NC(=O)[C@H](C(C)C)N(C)C(=O)C1COC1)C(=O)N1CCC[C@H](N1)C(=O)OCC(C)(C)C2` is 0.1 to 1 µM

// sample `CCn1c(-c2cccnc2[C@H](C)OC)c2c3cc(ccc31)-c1csc(n1)C[C@H](NC(=O)[C@H]1CCO1)C(=O)N1CCC[C@H](N1)C(=O)OCC(C)(C)C2` , its IC50 was 1 to 10 µM

Lab note: CCn1c(-c2cc(N3CCN(C)CC3)cnc2[C@H](C)OC)c2c3cc(ccc31)-c1csc(n1)C[C@H](NC(C)=O)C(=O)N1CCC[C@H](N1)C(=O)OCC(C)(C)C2 (atropisomer, axis not shown) [Example A340] gave IC50 of > 10 µM

The measured IC50 associated with C=CC(=O)N1CC[C@@H](N(C)C(=O)N(C)[C@H](C(=O)N[C@H]2Cc3nc(cs3)-c3ccc4c(c3)c(c(-c3cccnc3[C@H](C)OC)n4CC(F)(F)F)CC(C)(C)COC(=O)[C@@H]3CCCN(N3)C2=O)C(C)C)C1 (atropisomer, axis not shown) reads 1 to 10 µM

Record `CCn1c(-c2cccnc2[C@H](C)OC)c2c3cc(ccc31)-c1csc(n1)C[C@H](NC(=O)[C@H](C(C)C)N(C)C(=O)N1CC(C)(OC)C1)C(=O)N1CCC[C@H](N1)C(=O)OCC(C)(C)C2` , field IC50: 1 to 10 µM

Reported IC50 ( `CCn1c(-c2cnccc2COC)c2c3cc(ccc31)-c1cc(O)cc(c1)C[C@H](NC(=O)[C@H](C(C)C)N(C)C(=O)[C@H]1CCOC1)C(=O)N1CCC[C@H](N1)C(=O)OCC(C)(C)C2` ) = 0.1 to 1 µM
